targetEntity: T1, human Ang2 (construct not stated) (human, UniProt O15123 19-496, limits assumed)
T1 construct: also called hAng2
T1 sequence (looked up): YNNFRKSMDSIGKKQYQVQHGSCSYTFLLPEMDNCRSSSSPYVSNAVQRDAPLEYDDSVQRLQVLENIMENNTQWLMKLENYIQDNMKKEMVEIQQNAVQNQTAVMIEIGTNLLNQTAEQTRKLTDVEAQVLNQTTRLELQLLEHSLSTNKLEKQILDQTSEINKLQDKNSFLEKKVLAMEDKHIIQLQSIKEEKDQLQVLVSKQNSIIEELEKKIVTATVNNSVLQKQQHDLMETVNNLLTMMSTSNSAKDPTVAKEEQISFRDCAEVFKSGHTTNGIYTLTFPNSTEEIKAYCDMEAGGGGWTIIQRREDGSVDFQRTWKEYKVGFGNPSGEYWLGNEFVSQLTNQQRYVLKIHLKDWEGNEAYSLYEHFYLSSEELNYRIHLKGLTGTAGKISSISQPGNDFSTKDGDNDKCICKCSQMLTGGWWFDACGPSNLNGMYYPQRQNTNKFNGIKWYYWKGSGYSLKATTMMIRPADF
measurementProtocol: SPR Biacore T200, antibody captured on protein A chip, Ang2 as analyte, 1:1 model
Description: To analyze the binding affinity of the selected anti-Ang2 antibodies, affinity analysis for human Ang2 and mouse Ang2 was performed using BIACORE® T200 (GE Healthcare). […] The analysis proceeded at a flow rate of 30 μl/min, the binding and dissociation time of human Ang2 was measured as 300 seconds and 2000 seconds, respectively, and the binding and dissociation time of mouse Ang2 was analyzed as 300 seconds and 1000 seconds, respectively. […]
measurementKind: koff (s⁻¹)
Give the quantity in s⁻¹, number only.

Illustrative cases are given below, each with its answer.
1) No. 3 anti-Ang2 antibody (IgG) (antibody, V domains shown, IgG form: VH cloned into Invivogen pfusess-hchg1 (heavy chain constant region), VL into Invivogen pfuse2ss-hclk (light chain constant region); Expressed in Expi293F, purified on Protein A; also called 1D10) VH: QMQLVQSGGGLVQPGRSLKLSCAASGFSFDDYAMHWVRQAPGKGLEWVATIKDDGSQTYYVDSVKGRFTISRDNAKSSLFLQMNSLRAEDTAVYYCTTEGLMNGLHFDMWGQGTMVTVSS VL: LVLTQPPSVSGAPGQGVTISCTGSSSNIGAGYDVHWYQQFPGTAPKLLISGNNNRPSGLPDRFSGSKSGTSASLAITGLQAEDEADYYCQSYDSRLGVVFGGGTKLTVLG ... 4.22e-05
2) No. 46 anti-Ang2 antibody (IgG) (antibody, V domains shown, IgG form: VH cloned into Invivogen pfusess-hchg1, VL into Invivogen pfuse2ss-hclk; also called 3C6) VH: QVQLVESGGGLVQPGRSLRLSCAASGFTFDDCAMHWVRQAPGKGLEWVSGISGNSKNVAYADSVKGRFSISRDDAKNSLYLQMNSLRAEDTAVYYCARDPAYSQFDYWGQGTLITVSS VL: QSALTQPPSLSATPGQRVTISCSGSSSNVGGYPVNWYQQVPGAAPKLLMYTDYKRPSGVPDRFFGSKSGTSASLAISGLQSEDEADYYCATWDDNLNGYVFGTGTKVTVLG ... 8.62e-05
3) No. 8 anti-Ang2 antibody (IgG) (antibody, V domains shown, IgG form: VH cloned into Invivogen pfusess-hchg1, VL into Invivogen pfuse2ss-hclk; also called 3A10) VH: QVQLVESGGGLVKPGGSLRLSCAASGFTFSSYSMNWVRQAPGKGLEWVSSISASDGATYYADSVRGRFTISRDNSRSTLYLQMNSLRAEDTAVYYCAKILAGYSGPMGGMDVWGQGTTVTVSS VL: DIQMTQSPSSLSASVGDRVTITCRASRDISNYLAWYQQKPGKAPKSLIYGASNLQSGVSSQFSGSGSGTDFTLTINSLQPEDSATYYCQQYYSYPLTFGGGTKVDIKR ... 4.37e-05
4) No. 4 anti-Ang2 antibody (IgG) (antibody, V domains shown, IgG form: VH cloned into Invivogen pfusess-hchg1, VL into Invivogen pfuse2ss-hclk; also called 2D8) VH: QVQLVESGAEVKRPGESLRISCKTSGYSFTSYWIHWVRQMPGKELEWMGSIYPGNSDTRYSPSFQGHVTISADSSSSTAYLQWSSLKASDTAMYYCTTEGLMNGLHFDMWGQGTMVTVSS VL: DIVMTQTPLSLPVTPGEPASISCRSSQSLLHSLGDNYLDWYLQKPGQSPQLLIYLGSKRAAGVPDRFSGSGSGTDFTLKISRVEAEDVGVYYCMQSLQTPPYTFGQGTKLEIKR ... 5.93e-05

Q: Entry No. 41 anti-Ang2 antibody (IgG) (antibody, V domains shown, IgG form: VH cloned into Invivogen pfusess-hchg1, VL into Invivogen pfuse2ss-hclk; also called 2B2) VH: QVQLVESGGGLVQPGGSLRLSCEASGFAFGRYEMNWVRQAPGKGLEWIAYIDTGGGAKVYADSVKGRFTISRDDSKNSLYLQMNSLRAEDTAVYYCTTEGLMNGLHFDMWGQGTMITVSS VL: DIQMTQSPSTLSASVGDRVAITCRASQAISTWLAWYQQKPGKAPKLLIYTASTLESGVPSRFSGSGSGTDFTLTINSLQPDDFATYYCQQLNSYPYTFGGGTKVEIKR : reported koff = ?
Ans: 7.77e-05
